Test summary: microbe, parasite or virus in culture
Condition summary: Mycobacterium tuberculosis, 72 h, read-out: pIC50 (converted)
Entries and their IC50
Assay readout: IC50 (µM)

1) CC(C)c1csc(C(=O)N2CCOc3ncccc32)n1: 139
2) CCNC(=O)c1cc(N2CCCC(C)CC2)ccn1 (configuration not stated): 143
3) CC1CCN(C(=O)c2cnn(-c3cccnc3)c2)CC1: 307
4) CC(c1nc(COc2ccc(F)cc2)no1)S(C)(=O)=O (configuration not stated): 230
5) CCCOc1ccccc1CCCNc1ncnc2oc(C)nc12: 25.4

###

Target entity: Lysine--tRNA ligase (Plasmodium falciparum (isolate 3D7))
Sequence (Q8IDJ8 whole entry): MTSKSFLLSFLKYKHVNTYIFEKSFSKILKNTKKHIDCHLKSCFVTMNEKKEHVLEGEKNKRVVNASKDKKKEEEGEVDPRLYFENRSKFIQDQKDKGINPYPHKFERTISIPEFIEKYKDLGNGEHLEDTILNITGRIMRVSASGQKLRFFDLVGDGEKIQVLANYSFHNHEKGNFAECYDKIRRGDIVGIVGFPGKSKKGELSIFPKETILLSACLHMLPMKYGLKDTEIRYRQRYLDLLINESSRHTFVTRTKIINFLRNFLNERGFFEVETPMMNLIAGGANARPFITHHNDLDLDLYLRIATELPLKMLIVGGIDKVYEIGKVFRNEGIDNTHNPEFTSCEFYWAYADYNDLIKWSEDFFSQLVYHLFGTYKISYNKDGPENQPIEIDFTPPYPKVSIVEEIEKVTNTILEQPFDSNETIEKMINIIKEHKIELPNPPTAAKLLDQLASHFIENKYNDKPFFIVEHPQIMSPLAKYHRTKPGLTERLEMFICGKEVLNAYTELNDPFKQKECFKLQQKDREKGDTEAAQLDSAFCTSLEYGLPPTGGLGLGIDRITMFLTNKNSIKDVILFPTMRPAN
Test summary: Pf-KRS-1 (Lysyl-RNA Synthetase-1, KRS-1, cytosolic KRS) from Plasmodium falciparum. Inhibitor assay, 384 well plate, luminescence read.
pIC50: −log10 of the molar value.
Assay readout: pIC50

1) COc1nccnc1N1CCC2(CC1)[C@H](O)C[C@@H]2OCCN(C)C: < 4.30
2) CN(C)C(=O)[C@@H]1CCO[C@@H]2CCN(CCc3ccccc3)C[C@@H]21: < 4.30
3) Cn1nc2c(cc1=O)CN(CC1CCCCO1)CC2 (centres undefined): < 4.30
4) CCn1ncc2c1CCCC2NCc1ccc(OC)c(C)c1 (centres undefined): < 4.30
5) CCCn1nc2c(cc1=O)CN(CCCS(N)(=O)=O)CC2: < 4.30
6) CN(C)CCO[C@H]1C[C@@H](O)C12CCN(c1nccc3ccccc13)CC2: < 4.30
7) FC(F)(F)c1ccc(CN2CCN(Cc3cscn3)CC2)cc1: < 4.30
8) COc1cc(CNCCn2ccnc2)cc2c1OCO2: < 4.30
9) COCCCN1CCc2cncnc2C1: < 4.30
10) Cc1cc2ccccc2n1CCC(=O)N1CCCCC1CCO (centres undefined): < 4.30
11) CC(C)NC(=O)N1CCC(c2nnc3n2CCNC3)CC1: < 4.30
12) O=C(NCCc1ccco1)Nc1cc(C(F)(F)F)c[nH]c1=O: < 4.30
13) Cc1nc[nH]c1CN1CCn2nc(CN3CC[C@H](F)C3)cc2C1: < 4.30
14) COCCn1cc(NC(=O)NC(C)CCc2ccccc2)ccc1=O (centres undefined): < 4.30
15) CC(C)Oc1ccccc1C1CC(=O)Nc2nc(N3CCOCC3)sc21 (centres undefined): < 4.30
16) CCc1nc(CN2CCOC(CN(CC)c3cccnn3)C2)cs1 (centres undefined): < 4.30
17) CSC(C)C(=O)NCc1ccc(-n2cncn2)nc1 (centres undefined): < 4.30
18) O=C(COCCc1ccccc1)N1CCCC(n2cccn2)C1 (centres undefined): < 4.30
19) CC(C(=O)Nc1ccc(Cl)cn1)N1CCc2nn(C)c(=O)cc2C1 (centres undefined): < 4.30
20) COc1cccc(C2CC(=O)Nc3nc(N4CCCCC4)sc32)c1OC (centres undefined): < 4.30
21) Cc1cc(C)c2nc(CN[C@H]3CCCNC3)cc(O)c2c1: < 4.30
22) Cc1nc(NC(=O)CN2CCOC(Cn3cccn3)C2)sc1C (centres undefined): < 4.30
23) O=c1[nH]c2c(c(=O)n1C1CCCCC1)CCC2Nc1ccccc1Cl (centres undefined): 4.85
24) Cc1nc(CN2CCCC(CCc3ccccc3C(F)(F)F)C2)co1 (centres undefined): < 4.30
25) COc1c(C)cnc(CN(C)C(=O)c2ccccc2F)c1C: < 4.30
26) COC(=O)c1ccc(OC)c(Cn2cc(N)cn2)c1: < 4.30
27) COCCCN1CC2(CCCCN2C(=O)C2CCCCC2)CC1=O (centres undefined): < 4.30
28) COCC1CN(C(=O)Cc2ccccn2)Cc2ncn(C)c21 (centres undefined): < 4.30
29) COCc1nc2cc(NCc3sc(C)nc3C)ccc2o1: < 4.30
30) O=C(C(O)c1ccccc1Cl)N1CCCN(Cc2cccnc2)CC1 (centres undefined): < 4.30
31) Cc1nc(CN2CCC3(CCCO3)CC2)c2ccccn12: < 4.30
32) CO[C@H]1CC[C@H]2[C@H]1OCCN2C(=O)CC1=CCCCC1: < 4.30
33) CC(NC(=O)NCCCOc1ccccc1F)c1nncn1C (centres undefined): < 4.30
34) O=C(CCNC(=O)c1ccoc1)Nc1cccc(F)c1: < 4.30
35) N#CCc1ccc(OCC(=O)N2CCCC(n3cccn3)C2)cc1 (centres undefined): < 4.30
36) CCCOCC1CCN(C(=O)Cn2cccc(OC)c2=O)C1 (centres undefined): < 4.30
37) CC1(C)CCN1C(=O)c1cc(F)cc2[nH]cnc12: < 4.30
38) CCCn1nc2c(cc1=O)CN(c1ncnc3ccsc13)CC2: < 4.30
39) O=C(NCc1ccc(Cl)s1)c1ccc(N2CCOC2=O)cc1: < 4.30
40) CCCN(C(=O)c1ccccn1)c1nc2c(s1)CCc1c-2cnn1C: < 4.30
41) CCOc1ccc(CC(CNC(=O)c2ccoc2C)C(N)=O)cc1 (centres undefined): < 4.30
42) CC(C)NC(=O)N1CCc2c(CNc3ncccn3)cncc2C1: < 4.30
43) Cc1cnc(N2CCN(C)c3ncccc3C2)nc1: < 4.30
44) CSCCC(O)C(=O)N1CCCN(Cc2cccnc2)CC1 (centres undefined): < 4.30
45) Cc1noc(C2CCCN(C(=O)c3cc(Cl)ccc3F)C2)n1 (centres undefined): < 4.30
46) CC(=O)c1cc(CC(=O)N2CCN(S(=O)(=O)c3ccccc3)CC2)cs1: < 4.30
47) O=c1[nH]c2c(c(=O)n1C1CCCCC1)CCC2NCCc1ccccc1 (centres undefined): 5.76
48) COc1cc(F)c(S(=O)(=O)Nc2cnc(O)cc2C)cc1OC: < 4.30
49) Cc1noc(C(C)Nc2ccc3oc(C(C)C)nc3c2)n1 (centres undefined): < 4.30
